Listed below: Dose.FC.CTG values for each entry.
test system: ENR+CD organoids; experiment: Primary screen: ATP (CellTiter-Glo 3D, CTG) cell number/viability, 2.5-D 384-well ENR+CD organoids; conditions: primary screen, dose 10.00 uM;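 note: compounds given at plating and again on day 3 over a 6-day differentiation from ENR+CV stem-cell-enriched precursors, ATP measured on day 6, plate median as control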
Structures can show the parent of a compound that is named as a salt.
quantity: Dose.FC.CTG

In [3]: df
Out[3]:
                                   compound       target_desc           value_observed
0  CS(=O)(=O)N1CCN(Cc2cc3nc(-c4cccc5[nH]ncc45)nc(N4CCOCC4)c3s2)CC1  ENR+CD organoids  −1.223 log2 fold change
1  CCOC(=O)C1=C(C)NC(C)=C(C(=O)OC)C1c1cccc(Cl)c1Cl (centres unmarked)  ENR+CD organoids   0.032 log2 fold change
2  O=c1ncccn1[C@@H]1O[C@H](CO)[C@@H](O)[C@H]1O  ENR+CD organoids  −0.167 log2 fold change
3  Cc1cc([C@@H](C)Nc2ccccc2C(=O)O)c2nc(N3CCOCC3)cc(=O)n2c1  ENR+CD organoids  −1.203 log2 fold change
4  COc1cc(Nc2c(C#N)cnc3cc(OCCCN4CCN(C)CC4)c(OC)cc23)c(Cl)cc1Cl [Bosutinib (SKI-606), Bosutinib, reference compound]  ENR+CD organoids  −0.668 log2 fold change
5  CCCCN1CCCCC1C(=O)Nc1c(C)cccc1C (centres unmarked) [Bupivacaine HCl]  ENR+CD organoids  −0.364 log2 fold change
6  C=CC(=O)Nc1cccc(Nc2nc(Nc3ccc(OCCOC)cc3)ncc2F)c1  ENR+CD organoids  −0.778 log2 fold change
7  Cc1cc(Nc2cc(N3CCN(C)CC3)nc(Sc3ccc(NC(=O)C4CC4)cc3)n2)n[nH]1  ENR+CD organoids  −0.959 log2 fold change
